experiment: Average zeta potential of liposomes made from cationic silyl lipids (Tables 1A, 1B)
Assay type: physicochemical
measurement_conditions: Table 1B; sila-DOTMA analog liposomes; two values given
quantity_kind: Avg. zeta Potential (mV)

{"compound": "C[N+](C)(C)CC(COCCCCCCCC[Si](C)(C)c1ccccc1)OCCCCCCCC[Si](C)(C)c1ccccc1 (centres unmarked)", "quantity_kind": "Avg. zeta Potential", "numeric_readout": 62}
{"compound": "CCCCCCCC[Si](C)(C)CCCCCCOCC(C[N+](C)(C)C)OCCCCCC[Si](C)(C)CCCCCCCC (centres unmarked)", "quantity_kind": "Avg. zeta Potential", "numeric_readout": 64}
{"compound": "CCCCCC[Si](C)(C)CCCCCCCCCCOCC(C[N+](C)(C)C)OCCCCCCCCCC[Si](C)(C)CCCCCC (centres unmarked)", "quantity_kind": "Avg. zeta Potential", "numeric_readout": 52}
{"compound": "CCCCCCCC[Si](CCCCCCCC)(CCCCCCCC)CCCCCCCCOCC(C[N+](C)(C)C)OCCCCCCCC[Si](CCCCCCCC)(CCCCCCCC)CCCCCCCC (centres unmarked)", "quantity_kind": "Avg. zeta Potential", "numeric_readout": 64}
{"compound": "CCCC[Si](C)(C)CCCCCCOCC(C[N+](C)(C)C)OCCCCCC[Si](C)(C)CCCC (centres unmarked)", "quantity_kind": "Avg. zeta Potential", "numeric_readout": 65}
